Data origin: paper PMC2375326

Task for the reader: assign each of the following molecules its reported activity at 15 min, 30 μM.
TGT: CYP1A1 (Homo sapiens)
Sequence (P04798 whole entry): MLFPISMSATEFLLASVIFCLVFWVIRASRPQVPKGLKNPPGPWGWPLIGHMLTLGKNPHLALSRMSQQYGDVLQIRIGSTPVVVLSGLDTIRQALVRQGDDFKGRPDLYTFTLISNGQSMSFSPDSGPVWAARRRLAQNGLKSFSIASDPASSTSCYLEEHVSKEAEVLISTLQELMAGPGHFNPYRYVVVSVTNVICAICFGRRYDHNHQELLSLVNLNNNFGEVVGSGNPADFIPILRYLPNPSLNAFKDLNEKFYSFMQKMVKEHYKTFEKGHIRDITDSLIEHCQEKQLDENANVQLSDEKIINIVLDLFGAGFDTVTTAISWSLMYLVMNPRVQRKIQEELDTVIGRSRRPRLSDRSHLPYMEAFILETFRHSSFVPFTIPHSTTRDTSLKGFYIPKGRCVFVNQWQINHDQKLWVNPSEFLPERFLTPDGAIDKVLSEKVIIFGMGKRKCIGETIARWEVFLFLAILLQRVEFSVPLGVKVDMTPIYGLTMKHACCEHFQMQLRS
ASSAY_PROTOCOL: Inhibition of recombinant CYP1A1 microsomal EROD activity
Type: biochemical
CONDITION_LABEL: microsomes expressing recombinant CYP1A1, pH 7.4, probe 7-ethoxyresorufin (100 μM); 30 μM agent; incubates without drug = 100% activity; mean of three, s.d. <10%; read-out: Microsomal CYP1A1 EROD activity (% control)

Hello, I would appreciate it if you could give activity at 15 min, 30 μM for each entry below.
1. Cc1cc(-c2nc3cc(F)c(F)cc3s2)ccc1N
2. Cc1cc(-c2nc3cc(F)c(F)cc3s2)ccc1NC(=O)[C@H](C)N
3. Cc1cc(-c2nc3ccc(F)cc3s2)ccc1NC(=O)[C@@H](N)CCCCN
4. Cc1cc(-c2nc3ccc(F)cc3s2)ccc1NC(=O)[C@H](C)N
5. Cc1cc(-c2nc3cc(F)ccc3s2)ccc1NC(=O)[C@@H](N)CCCCN
6. Cc1cc(-c2nc3ccccc3s2)ccc1N

Key:
["43.1%", "41.9%", "47%", "28.9%", "38.5%", "22.6%"]
